Sourced from patent US20240309103A1

target: T1, hNPR1-mFc:hANP or hNPR1-hFc:hANP complex (human, UniProt P01160 124-151); assay: SPR, mAb captured, 37C
T1 construct: also called human NPR1 complexed to ANP
Measured quantity: t½ (h)
Please reply with the bare figure in h and do not write the unit itself.

Request: Return t½ for the following binder: mAb22035 (antibody, human IgG4, V domains shown) VH: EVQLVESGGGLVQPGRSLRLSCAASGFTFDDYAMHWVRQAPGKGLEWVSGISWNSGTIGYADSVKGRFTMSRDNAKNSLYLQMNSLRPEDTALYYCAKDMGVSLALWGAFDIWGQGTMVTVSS VL: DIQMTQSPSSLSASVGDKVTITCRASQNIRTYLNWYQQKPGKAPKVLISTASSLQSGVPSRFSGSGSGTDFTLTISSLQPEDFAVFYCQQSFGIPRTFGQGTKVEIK
Result: 1.68
